B1: glmS ribozyme (parent)
chain: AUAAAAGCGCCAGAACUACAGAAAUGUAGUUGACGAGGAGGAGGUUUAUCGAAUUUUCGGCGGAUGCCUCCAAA

Variants of: B1
Experiment: kcat; higher = faster cleavage; RNA array
Conditions: with glucosamine-6-phosphate
Fewer inactive variants are shown than the library holds.
Overview of recorded kcat for various variants
Give just the numeric value; s⁻¹ need not be written.

Examples from the recorded data:
querySequence	kcat / s⁻¹
AUAAAAGCGCGAGAACUACAGAAAUGUAGAUGACGAGGAGGAGGUUUAUCGAAUUUUCGGCGGAUGCCUCCAAA	4.67e-05
AUAAAAGCGCCAGAACUACAGAAAUGUAGUUGACGAGGUGGAGGUUUAUCGAGUUUUCGGCGGAUGCCUCCAAA	0.0183
AUAAAAGCGCCAGAACUACAGAAAUGUAGUUGACGAGGAGGAGGUUUAUCGAAUUUUCGGCGGGCGCCUGCAAA	1.52e-05
AUAAAAGCGCCAGAACUACAGAAAUGUAGUUGACGAGGCGGAGGUUUAUCGUAUUUUCGGCGGAUGCCUCCAAA	8.87e-05

Qu. Would you kindly share the measured kcat for AUAAAAGCGCCAGAACUACAGAAAUGUAGUUGACUAGGAGGAGGUUUAUCGAAGUUUCGGCGGAUGCCUACAAA ?
Ans. 1.53e-05

Qu. Would you kindly share the measured kcat for AUAAAAGCGCCAGAACUACAGAAAUGUAGUUGACGAGGAGGAGGUUUGUCGAAUUUCCGGCGGAUGCCUCCAAA ?
Ans. 1.23e-05
